Every entry's value here was drawn from patent US11578055B2.

# procedure.details: In Vitro Microsome Stability Assay (mouse)
# Type: in vitro ADME
# condition.summary: mouse liver microsomes, 30 min w/ NADPH
Liver Microsome Stability-% Left after 30 min w/ NADPH (%) Mouse listing for selected compounds.
Put your answer as a value accompanied by its unit after it.

Would you please look over these solved cases?
{"compound": "C[C@H]1CN(S(=O)(=O)c2ccc3c(ccn3C)c2)CCCN(CC2CCCCC2)CCCN(S(=O)(=O)N2CCc3cc(Cl)ccc3C2)C1 [A188]", "measured": "4.48%"}
{"compound": "CN(C)c1ccc(S(=O)(=O)N2C/C=C\\CN(S(=O)(=O)N3CCC(c4ccccc4)CC3)CCCN(CC3CCCCC3)CCC2)cc1 [B8]", "measured": "17.1%"}
{"compound": "C[C@H]1CN(S(=O)(=O)c2ccc(N(C)C)cc2)CCCN(CC2CCCCC2)CCCN(S(=O)(=O)N2CCN(c3ccccc3Cl)CC2)C1 [A198]", "measured": "68.2%"}
{"compound": "Cc1cc(F)ccc1N1CC2(C1)CN(S(=O)(=O)N1CCCN(CC3CCCCC3)CCCN(S(=O)(=O)c3ccc(N(C)C)cc3)C[C@H](C)C1)C2 [A161]", "measured": "26.5%"}
{"compound": "C[C@H]1CN(S(=O)(=O)c2ccc(N(C)C)cc2)CCCN(Cc2ncco2)CCCN(S(=O)(=O)N2CCc3cc(Cl)ccc3C2)C1 [A125]", "measured": "0.14%"}

Please supply the value of reported Liver Microsome Stability-% Left after 30 min w/ NADPH (%) Mouse for the item C[C@H]1CN(S(=O)(=O)c2ccc(N(C)C)cc2)CCCN(CC2CCCCC2)CCCN(S(=O)(=O)N2CCNCC2)C1 [A155]
16.8%

Tell me its Liver Microsome Stability-% Left after 30 min w/ NADPH (%) Mouse given COc1cc(F)ccc1C1CN(S(=O)(=O)N2CCCN(CC3CCCCC3)CCCN(S(=O)(=O)c3ccc(N(C)C)cc3)C[C@H](C)C2)C1 [A178] as the entry.
22.8%

Specify reported Liver Microsome Stability-% Left after 30 min w/ NADPH (%) Mouse for the compound shown: C[C@H]1CN(S(=O)(=O)c2ccc(N(C)C)cc2)CCCN(CCC(F)(F)F)CCCN(S(=O)(=O)N2CCc3cc(Cl)ccc3C2)C1 [A165]
14.9%

State its Liver Microsome Stability-% Left after 30 min w/ NADPH (%) Mouse: C[C@H]1CN(S(=O)(=O)c2ccc(N(C)C)cc2)CCCN(CC2CC(F)(F)C2)CCCN(S(=O)(=O)N2CCc3cc(Cl)ccc3C2)C1 [A169]
22.5%

Item C[C@@H]1CN(CC2CCCCC2)C[C@H](C)CN(S(=O)(=O)c2ccc(N(C)C)cc2)C[C@H](C)CN(S(=O)(=O)N2CCc3cc(Cl)ccc3C2)C1 [B16] : provide Liver Microsome Stability-% Left after 30 min w/ NADPH (%) Mouse
58.4%

Answer with the recorded Liver Microsome Stability-% Left after 30 min w/ NADPH (%) Mouse for the compound listed here: COc1c(F)cccc1N1CCN(S(=O)(=O)N2CCCN(CC3CCCCC3)CCCN(S(=O)(=O)c3ccc(N(C)C)cc3)C[C@H](C)C2)CC1 [A175]
6.73%

Give a short answer stating reported Liver Microsome Stability-% Left after 30 min w/ NADPH (%) Mouse for C[C@H]1CN(S(=O)(=O)c2ccc(N(C)C)cc2)CCCN(CC2CCCCC2)CCCN(S(=O)(=O)N2CCN(c3ccccc3C#N)CC2)C1 [A118] .
22.1%

// Input: COc1cccc([C@@H]2CCCN(S(=O)(=O)N3CCCN(CC4CCCCC4)CCCN(S(=O)(=O)c4ccc(N(C)C)cc4)C[C@H](C)C3)C2)c1 [A209] . Output its Liver Microsome Stability-% Left after 30 min w/ NADPH (%) Mouse only.
31.8%
